assay: Plasmodium falciparum growth inhibition, primary screen, strain 3D7, DAPI fluorescence, 100 nL (AID 1184);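 note: parasites grown inside human red blood cells in medium with human serum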; details: P. falciparum 3D7 growth, 3 d, higher = more signal
Given measured z-score, output label 1 if it is greater than or equal to 0.3 and label 0 if not.

Solved entries (count: 3):
{"columns": ["molecule", "classification"],
 "data": [
  ["CC(CCN1CCCc2nc(C)c(C)cc21)=NO[C@@H](C)c1cn([C@H](CO)Cc2ccccc2)nn1", "label 0"],
  ["CC(CCN1CCCCc2nc(C)c(C)cc21)=NO[C@H](C)c1cn([C@@H]2COC[C@H]2O)nn1", "label 0"],
  ["C[C@@H](c1ccccc1)N1C(=O)[C@H]2[C@H]3[C@H](O)[C@H](O)CC(=NOC[C@@H](O)COCc4ccco4)[C@H]3CC[C@H]2C1=O", "label 0"]
]}

Determine whether this molecule has z-score no lower than 0.3: CO[C@H]1COC(=O)CC=C[C@@H](C)COC(=O)[C@H]2CCCN2C(=O)CC=C[C@H]1C
label 1

Same thing, different molecule: CC(=O)OC[C@H]1O[C@H](CC=NO[C@H](C)c2cn([C@@H]3COC[C@H]3O)nn2)C=C[C@@H]1OC(C)=O
label 0

Let us now turn to CC(CCN1CCCc2nc(C)c(C)cc21)=NOC[C@@H](O)COCc1ccco1
label 0

Try CCOC(=O)NN=C1C[C@@H](O)[C@@H](O)[C@@H]2[C@@H]3C(=O)N(C[C@@H]4CCCO4)C(=O)[C@@H]3CC[C@H]12 next.
label 1

Further, for CN1CCc2nc(-c3ccccc3)c(-c3ccccc3)cc2C1 ?
label 1
